These data points were gathered from patent US20210253725A1.

# TEST SYSTEM: T1, CD27 expressed on the cell surface (HT1080_CD27 cells) (human, UniProt P26842 20-260); note: test concentration or dose not given here
# T1 sequence (looked up): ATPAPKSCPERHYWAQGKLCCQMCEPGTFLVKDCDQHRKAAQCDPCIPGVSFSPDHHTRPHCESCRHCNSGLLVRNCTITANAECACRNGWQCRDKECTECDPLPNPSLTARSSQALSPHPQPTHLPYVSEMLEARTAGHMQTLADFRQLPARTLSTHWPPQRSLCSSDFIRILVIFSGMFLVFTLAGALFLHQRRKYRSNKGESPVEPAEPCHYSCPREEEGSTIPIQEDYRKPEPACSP
# ASSAY NAME: cell-based or functional assay
Record fulfilled whenever IL-8, cross-linked by F(ab')2 fragment [abs. corr.] is at 2 abs. corr. or higher; record not fulfilled when lower.

Example cases with answers are listed next.
• P018.S.08.A.D01 (antibody, V domains shown, V regions on human Ig constant parts; also called AB27_137) VH: QSVEESGGRLVMPGTPLTLTCTVSGFSLSTYVMGWVRQAPGKGLECIGVIYGGGTIWYASWAKGRFTISKTSTTMDLQITSPTTEDTATYFCARDGSSSGDPGFNLWGQGTLVTVSS VL: DIVMTQTPASVSAAVGGTVTINCQASQSISNWVAWYQQKPGQPPKRLIYKASTLASGVPSRFKGSGSGTEFTLTISDLESADAATYYCQSTGSTAYGRAFGGGTEVVVR = not fulfilled
• P018.S.01.A.D04 (antibody, V domains shown, V regions on human Ig constant parts; also called AB27_12) VH: QEQLEESGGRLVTPGGTLTLTCTASGFSLSNYDMSWVRQAPGKGLEWIGYIWSDGNTDYASWAAGRFTASRASTTVDLKMTSLTTEDTATYFCARGYTGFFLWGPGTLVTVSS VL: DVVMTQTPSSVSTAVGDTVTIKCQASQSIGSSYLSWYQQKPGQPPKLLIYKTSTLASGVPSRFKGSGSGTEFTLTISDLESDDAATYYCQCTYYGGSWRVAFGGGTEVVVK = fulfilled
• P018.S.06.A.E04 (antibody, V domains shown, V regions on human Ig constant parts; also called AB27_106) VH: QEQLEESGGDLVQPEGSLTLTCTVSGFSFDSNYWICWVRQAPGKGPEWIACIMTGDGSIYYATWAKGRFTISKTSSTTVTLQMTSLTAADTATYFCARGYDGIHGGDNYGHVFNLWGPGTLVTVSS VL: AFELTQTPFSVSAVVGGTVTINCQASENIYTLLAWYQQKSGQPPKLLIYRASTLTSGVPSRFKGSGSGTQFTLTISDLESADAATYYCQGYYVDSGNTFGGGTEVVVK = not fulfilled

Request: Does P018.S.09.A.E06 (antibody, V domains shown, V regions on human Ig constant parts; also called AB27_156) VH: QSVEESGGRLVTPGTPLTLTCTVSGFSLSSYGMIWVRQAPGKGLEWIAWSSSNDNTYYASWAKGRFTISKTSSTTVDLKMTSLTTEDTATYFCARNGVYSTGNYFDLWGQGTLVTVSS VL: AQVLTQTPSPVSAAVGGTVTINCQASQSVYNNNNLAWYQQKPGQPPKFLIYAASRLPSGVPPRFSGSGSGTQFTLTISDVQSDDAATYYCQGEFDCDSADCFAFGGGTEVVVK have a reported IL-8, cross-linked by F(ab')2 fragment [abs. corr.] of at least 2 abs. corr.?
Result: not fulfilled
